Just for reference, patent US12351561B2 is where these values come from.

- Procedure summary: Assay 1: IV/PO pharmacokinetic study in rats
- Type: in vivo, male Sprague-Dawley rats
- Measurement context: male, Sprague-Dawley, plasma; rat, IV, 0.5 mg/kg; read-out: AUClast Mean
Property measured: AUC(0-t)
The number alone won't do; follow it with the unit.

# return recorded AUC(0-t) for entry CCOC[C@](C)(C[C@@H](Cc1ccc(-c2cc(Cl)ccc2F)cc1)NC(=O)c1cc(O)no1)C(=O)O
390 ng·h/mL

----------
- Procedure summary: Assay 1: IV/PO pharmacokinetic study in dogs
- Format: in vivo, male beagle dogs
- Measurement context: dog, plasma, po, higher doses (100-300 mg/kg), data not shown, read-out: mean bioavailability
- Experimental: Each rat, dog or monkey PK study began with formulation of the test compound. […] Plasma concentrations of Compound I were determined by LC/MS/MS. […] Pharmacokinetic parameters of Compound I were determined by non-compartmental analysis (Model 201 and Model 200 for IV and PO administration, respectively) using Phoenix WinNonlin Version 6.3 (Certara, Sunnyvale, CA) and using individual plasma concentration time profiles from 3 animals per treatment group. […]
Property measured: bioavailability

# return recorded bioavailability for entry CCOC[C@](C)(C[C@@H](Cc1ccc(-c2cc(Cl)ccc2F)cc1)NC(=O)c1cc(O)no1)C(=O)O [Compound I]
7 to 13%
